Test system: SNB-75 CNS
methodDescription: NCI tumour cell line growth inhibition, 48 h
# TGI listing for each entry below

molecule | targetOrTestSystem | TGI
c1ccc2c(c1)Cc1c(Cc3csc4ccccc34)ccc3cccc-2c13 | SNB-75 CNS | > 100 µM
COc1ccc(C2C(C#N)=C(N)Oc3c2sc2c(Br)cccc32)cc1 (stereo not drawn) | SNB-75 CNS | 8.06 µM
CN(C)CCCNC(=O)c1cc(NS(=O)(=O)c2ccc3c(c2)C(=O)c2ccccc2C3=O)cn1C | SNB-75 CNS | 56 µM
C=CCOCn1cc(F)c(=O)[nH]c1=O | SNB-75 CNS | > 100 µM
O=[N+]([O-])c1cc(N=Nc2c(O)ccc3cc(S(=O)(=O)O)ccc23)c(O)c([N+](=O)[O-])c1 | SNB-75 CNS | > 100 µM
O=C(Nc1cc(Cl)ccc1O)c1ccccc1Nc1ccnc(C(F)(F)F)c1 | SNB-75 CNS | 6.55 µM
O=C(CC1C(=O)Nc2ccccc2S1(=O)=O)Nc1ccc(Cl)cc1 (stereo not drawn) | SNB-75 CNS | 37.6 µM
COC(=O)c1ccc(C)cc1CC1Cc2cccc(C)c2C1=O (stereo not drawn) | SNB-75 CNS | 36.9 µM
c1ccc(Oc2ccc(Nc3ncc(-c4ccccc4)o3)cc2)cc1 | SNB-75 CNS | > 25 µM
O=C(Nc1ccc(Cl)cc1)c1cc([N+](=O)[O-])ccc1O | SNB-75 CNS | 20.2 µM
CCOc1ccc(C(C[N+](=O)[O-])Sc2ccccc2N)cc1 (stereo not drawn) | SNB-75 CNS | 17.4 µM
Nc1ncc(C=O)c(NCC2(CO)CCC2)n1 | SNB-75 CNS | > 100 µM
Cn1c2ccccc2c2ccc3c(c21)C(=O)C(c1ccccc1)=CC3=O | SNB-75 CNS | > 100 µM
COc1ccc(OC)c(/C=C2\CCc3ccccc3C2=O)c1 | SNB-75 CNS | 3.52 µM
Cc1ccc(Cl)c(NS(=O)(=O)c2ccc(-c3cnc(C4CC4)o3)cc2)c1 | SNB-75 CNS | 0.164 µM
O=C(N/C(=C\c1ccccc1O)c1nc2ccccc2[nH]1)c1ccccc1 | SNB-75 CNS | 36.1 µM
CC(=O)Oc1c2ccsc2c(OC(C)=O)c2ccsc12 | SNB-75 CNS | 0.753 µM
Cc1ccc(-c2nc(-c3nccc4ccccc34)oc2-c2ccccc2)cc1 | SNB-75 CNS | 92.7 µM
Cn1cc(C2=C(c3cn(CCCN)c4ccccc34)C(=O)NC2=O)c2ccccc21 | SNB-75 CNS | 5.35 µM
CCCCOc1ccc(/C=N/Nc2cc(C)nc3ccc(Br)cc23)cc1 | SNB-75 CNS | 3.24 µM
CC1=CP(=O)(c2ccccc2)C=C(C)C1=C(Cl)Cl (stereo not drawn) | SNB-75 CNS | > 100 µM
CC(=O)/C(Br)=C/c1ccc(Br)o1 | SNB-75 CNS | 33.3 µM
CC(NC1=CC(=O)c2cccnc2C1=O)C(O)c1ccccc1 (stereo not drawn) | SNB-75 CNS | 3.05 µM

====

Tested on: SN12C renal
methodDescription: NCI tumour cell line growth inhibition, 48 h

compound | qualifier | TGI, µM
COc1cc2ncnc(Nc3ccc(Oc4ccnc(C)c4)c(C)c3)c2cc1NC(=O)CC1CCSS1 (stereo not given) | > | 50
CCOC(=O)c1c(C)nc2c(c1N)/C(=C/c1ccccn1)C(=O)N2Cc1ccccc1 | = | 3.09
CC(=O)Oc1c2ccsc2c(OC(C)=O)c2ccsc12 | = | 2.03
CCOC(=O)CCC(NC(=O)c1ccc(Oc2nc3c(N)cc(C(F)(F)F)cc3nc2-c2ccccc2)cc1)C(=O)OCC (stereo not given) | > | 100
O=C1Cc2cc(CCn3cncn3)c(Cl)cc2N1 | > | 100
COc1ccc(-c2cc(-c3ccc(Cl)cc3)nc(NCCCCNc3ccnc4cc(Cl)ccc34)n2)cc1 | = | 3.18
CN(C)c1ccc(/C=N/c2nc3cc4sc(/N=C/c5ccc(N(C)C)cc5)nc4cc3s2)cc1 | > | 100
O=C(CC(C(=O)c1ccsc1)c1ccsc1)c1ccsc1 (stereo not given) | > | 100
CC(C)(C)[C@H]1CO[C@]2(c3ccccc3)[C@@H]3C[C@@H]3C(=O)N12 | > | 100
C=C1C(=O)O[C@H]2[C@H]1CC/C(COC(=O)/C=C\C(=O)NCc1ccc(Cn3c(=O)sn(CCI)c3=O)cc1)=C\CC[C@@]1(C)O[C@@H]21 | = | 10.8
O=C1NC2(CCCCC2)C(=O)N1CCN(CCCl)CCCl | > | 250
Nc1nc(N)c2ncn(CCOC(c3ccccc3)P(=O)(O)O)c2n1 (stereo not given) | > | 100
O=CC1C(Cl)=Nc2nc3ccccc3n2C1c1ccccc1 (stereo not given) | = | 44.8
COC(=O)c1c(C)c2c(c(C)c1C(=O)OC)-c1c(C)ccc3ccc(C)c-2c13 | > | 100
CCOC(=O)NN(C(=O)OCC)C(=C(C1=CCCCC1)N1CCOCC1)N(NC(=O)OCC)C(=O)OCC | > | 100
COc1ccc(N2C(=O)/C(=C\c3ccccc3)SC2c2cc(OC)c(OC)c(OC)c2)cc1 (stereo not given) | > | 100
CCN(CC)CCN1c2nc3ccccc3cc2Sc2cc3ccccc3nc21 | = | 12.2
O=[N+]([O-])c1cc(-[n+]2cc([O-])on2)ccc1Cl | = | 29.8
CSc1ccc(NC(=O)C2c3[nH]c4ccccc4c3C3CCC(C(C)(C)C)CC3C2C(=O)O)cc1 (stereo not given) | = | 36.8
Cc1c2ccncc2c(C)c2c1sc1ccccc12 | = | 23.8
